Target: Prostaglandin G/H synthase 1 (Ovis aries) (UniProt P05979)
Sequence (whole entry): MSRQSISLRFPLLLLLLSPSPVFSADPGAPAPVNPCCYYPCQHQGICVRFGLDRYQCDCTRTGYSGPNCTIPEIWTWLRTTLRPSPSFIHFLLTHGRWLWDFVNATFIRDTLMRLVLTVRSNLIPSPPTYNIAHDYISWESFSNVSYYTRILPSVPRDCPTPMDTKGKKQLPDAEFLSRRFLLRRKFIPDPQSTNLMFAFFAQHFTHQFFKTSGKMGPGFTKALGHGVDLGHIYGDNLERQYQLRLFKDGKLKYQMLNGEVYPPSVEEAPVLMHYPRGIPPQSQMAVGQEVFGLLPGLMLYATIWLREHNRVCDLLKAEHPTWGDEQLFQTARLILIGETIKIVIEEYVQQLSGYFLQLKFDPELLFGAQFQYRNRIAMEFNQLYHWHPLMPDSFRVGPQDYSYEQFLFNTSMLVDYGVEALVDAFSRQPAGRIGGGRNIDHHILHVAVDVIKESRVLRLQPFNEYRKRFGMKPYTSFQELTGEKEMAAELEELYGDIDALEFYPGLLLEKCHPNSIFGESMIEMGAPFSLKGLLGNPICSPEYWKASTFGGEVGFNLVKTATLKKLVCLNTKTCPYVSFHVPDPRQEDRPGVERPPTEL
Test: Inhibition of ovine COX1 at 10 uM using arachidonic acid as substrate preincubated for 5 mins followed by substrate addition and measured after 5 mins by UPLC-MS/MS analysis
The source made the active and inactive calls. The calls are words filed in the database; no cut-off is given here.
assay_endpoint: inhibition

- smiles_notation: "O=[N+]([O-])c1cc([N+](=O)[O-])c(-c2ccc(COc3cccc4ccccc34)cc2)cc1F"
  experimental_result: "inactive"
- smiles_notation: "COCCc1ccc(OCc2ccc(-c3cc(F)c([N+](=O)[O-])cc3[N+](=O)[O-])cc2)cc1"
  experimental_result: "inactive"
- smiles_notation: "O=[N+]([O-])c1cc([N+](=O)[O-])c(-c2ccc(COc3ccccc3)cc2)cc1F"
  experimental_result: "inactive"
- smiles_notation: "O=[N+]([O-])c1cc([N+](=O)[O-])c(-c2ccc(COc3cccc(C(F)(F)F)c3)cc2)cc1F"
  experimental_result: "inactive"
